Biological target: T1, human CD39 protein (recombinant) (human, UniProt P49961 38-478, limits assumed)
T1 sequence: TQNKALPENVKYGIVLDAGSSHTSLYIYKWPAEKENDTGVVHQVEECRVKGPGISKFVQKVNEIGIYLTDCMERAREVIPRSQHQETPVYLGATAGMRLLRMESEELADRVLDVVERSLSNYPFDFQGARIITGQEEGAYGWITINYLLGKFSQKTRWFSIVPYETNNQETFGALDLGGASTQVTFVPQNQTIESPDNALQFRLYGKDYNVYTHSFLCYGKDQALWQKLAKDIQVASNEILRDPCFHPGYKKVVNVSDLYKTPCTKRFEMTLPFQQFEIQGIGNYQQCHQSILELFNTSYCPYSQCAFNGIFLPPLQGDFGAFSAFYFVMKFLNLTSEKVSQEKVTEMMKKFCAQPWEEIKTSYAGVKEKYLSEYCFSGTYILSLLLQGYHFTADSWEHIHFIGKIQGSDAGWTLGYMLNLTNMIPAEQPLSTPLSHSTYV
Experiment: cell-based or functional assay
observable: ATPase inhibition IC50 (nM)
Value expressed in nM; do not type the unit.

HuEM0004-38-8 (antibody, human IgG1, kappa, L234A L235A, V domains shown, humanized mAb638, human IgG1/kappa) VH: EVQLVQSGAEVKKPGASVKVSCKASGYTFTSFWMHWVRQAPGQGLEWMGNINPRNGATKYNEKFRSRVTLTADKSISTAYMELSRLRSDDTAVYYCAREDYDEIYYAMDSWGQGTTVTVSS VL: ENVLTQSPATLSLSPGERATLSCSASSSVIYMYWFQQKPGQAPRLLIYDTSNLASGIPARFSGSGSGTDYTLTISSLEPEDFAVYYCQQWSTYPLTFGQGTKLEIKR
81.8
HuEM0004-38-20 (antibody, human IgG1, kappa, L234A L235A, V domains shown, humanized mAb638, human IgG1/kappa) VH: EVQLVQSGAEVKKPGASVKVSCKASGYTFTSFWMHWVRQAPGQGLEWIGNINPRNGATKYNEKFRSKVTLTADKSISTAYMELSRLRSDDTAVYYCAREDYDEIYYAMDSWGQGTTVTVSS VL: ENVLTQSPATLSLSPGERATLSCSASSSVIYMYWFQQKPGQSPRVLIYDTSNLASGVPARFSGSGSGTDYTLTISSLEPEDFAVYYCQQWSTYPLTFGQGTKLEIKR
27.3

Query block: Provide measured ATPase inhibition IC50 value, entry: HuEM0004-38-16 (antibody, human IgG1, kappa, L234A L235A, V domains shown, humanized mAb638, human IgG1/kappa) VH: EVQLVQSGAEVKKPGASVKVSCKASGYTFTSFWMHWVRQAPGQGLEWMGNINPRNGATKYNEKFRSRVTMTADTSISTAYMELSRLRSDDTAVYYCAREDYDEIYYAMDSWGQGTTVTVSS VL: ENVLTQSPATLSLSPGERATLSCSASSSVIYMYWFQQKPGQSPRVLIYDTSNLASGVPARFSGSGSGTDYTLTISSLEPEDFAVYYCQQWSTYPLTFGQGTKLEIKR
Result block: 41
